- Tested on: HeLa Kyoto;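 also: synchronized HeLa Kyoto cells, proteins quantified by TMT10plex mass spectrometry, three biological replicates, mitosis taken 0.5 h after nocodazole release, G1/S directly after double thymidine block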
- procedure-text: thermal stability score vs G1/S (z-score of summed log2 fold changes over temperatures); higher = more thermally stable than in G1/S
- assay-setup: cell cycle stage: mitosis
readout-kind: thermal stability score
Lab note: record the figure alone, no unit after it.

Problem: What value of measured thermal stability score is listed for MKEGRGSFSVERGPRKERETAQSGMWKGNSPAGSQGAAMEGTGGELGGQGNWGPEDAPGLLARASLIMLPWPLPLASSALTLLFGALTSLFLWYCYRLGSQDMQALGAGSRAGGVRGGPVGCSEAGGPSPGGPGDPGEGPRTEGLVSRRLRAYARRYSWAGMGRVRRAAQGGPGPGRGPGVLGIQRPGLLFLPDLPSAPFVPRDAQRHDVELLESSFPAILRDFGAVSWDFSGTTPPPRGWSPPLAPGCYQLLLYQAGRCQPSNCRRCPGAYRALRGLRSFMSANTFGNAGFSVLLPGARLEGRCGPTNARVRCHLGLKIPPGCELVVGGEPQCWAEGHCLLVDDSFLHTVAHNGSPEDGPRVVFIVDLWHPNVAGAERQALDFVFAPDP [ASPHD1] ?
Solution: 1.87

Pending sequence:
Problem: What value of measured thermal stability score is listed for MAAAAPDSRVSEEENLKKTPKKKMKMVTGAVASVLEDEATDTSDSEGSCGSEKDHFYSDDDAIEADSEGDAEPCDKENENDGESSVGTNMGWADAMAKVLNKKTPESKPTILVKNKKLEKEKEKLKQERLEKIKQRDKRLEWEMMCRVKPDVVQDKETERNLQRIATRGVVQLFNAVQKHQKNVDEKVKEAGSSMRKRAKLISTVSKKDFISVLRGMDGSTNETASSRKKPKAKQTEVKSEEGPGWTILRDDFMMGASMKDWDKESDGPDDSRPESASDSDT [RRP15] ?
Solution: -11.7
